Just for reference, patent US20110040072A1 is where these values come from.

Task for the reader: assign each of the following compounds its reported AUC % (Oral Bioavailability).
- measurement-protocol: Oral bioavailability / oral pharmacokinetics of oxycodone conjugates in rats
- condition-details: reference = 100
The answer is to be given in %; state only the numeric part.

Exam item: Looking for the measured AUC % (Oral Bioavailability) of COc1ccc2c3c1O[C@H]1C(OC(=O)[C@@H](NC(=O)[C@H](CCC(=O)O)NC(=O)[C@@H](N)C(C)C)C(C)C)=CC[C@@]4(OC(=O)[C@@H](NC(=O)[C@H](CCC(=O)O)NC(=O)[C@@H](N)C(C)C)C(C)C)[C@@H](C2)N(C)CC[C@]314 [(VEV)2-OC, [Val-Glu-Val]2-OC] , can you help?
Marked response: 104

Exam item: Suppose we examine the compound COc1ccc2c3c1O[C@H]1C(OC(=O)[C@@H](NC(=O)CNC(=O)[C@@H](N)CO)C(C)C)=CC[C@@]4(OC(=O)[C@@H](NC(=O)CNC(=O)[C@@H](N)CO)C(C)C)[C@@H](C2)N(C)CC[C@]314 [(SGV)2-OC, [Ser-Gly-Val]2-OC] ; what AUC % (Oral Bioavailability) value has been reported?
Marked response: 103

Exam item: Which value of AUC % (Oral Bioavailability) has been reported for COc1ccc2c3c1O[C@H]1C(=O)CC[C@@]4(O)[C@@H](C2)N(C)CC[C@]314 in the records?
Marked response: 100

Exam item: AUC % (Oral Bioavailability) lookup needed for COc1ccc2c3c1O[C@H]1C(OC(=O)[C@@H](NC(=O)[C@H](CC(=O)O)NC(=O)[C@@H](N)CCC(=O)O)C(C)C)=CC[C@@]4(OC(=O)[C@@H](NC(=O)[C@H](CC(=O)O)NC(=O)[C@@H](N)CCC(=O)O)C(C)C)[C@@H](C2)N(C)CC[C@]314 [(EDV)2-OC, [Glu-Asp-Val]2-OC] , thanks.
Marked response: 73
